- Tested on: Nonstructural protein 5A (Hepatitis C virus), Q5L478 [Y93H]
- Sequence (Q5L478 entry or part of it Y93H): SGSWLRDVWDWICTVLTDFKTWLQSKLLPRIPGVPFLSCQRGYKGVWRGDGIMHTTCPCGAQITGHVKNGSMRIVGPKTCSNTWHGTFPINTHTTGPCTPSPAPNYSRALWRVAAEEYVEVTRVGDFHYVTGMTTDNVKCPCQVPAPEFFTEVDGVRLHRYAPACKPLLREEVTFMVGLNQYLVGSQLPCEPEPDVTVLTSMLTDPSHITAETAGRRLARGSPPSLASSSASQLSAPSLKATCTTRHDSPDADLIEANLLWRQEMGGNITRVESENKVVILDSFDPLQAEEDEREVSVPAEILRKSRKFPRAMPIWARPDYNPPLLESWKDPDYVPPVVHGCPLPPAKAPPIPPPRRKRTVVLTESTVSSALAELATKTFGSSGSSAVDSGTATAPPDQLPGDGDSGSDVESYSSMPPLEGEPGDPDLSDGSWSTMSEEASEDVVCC
- METHOD SUMMARY: Inhibition of NS5A Y93H mutant in HCV genotype 1a infected in HuH7 replicon cells assessed as decrease in viral replication after 3 days by RT-PCR method
- Assay type: cell-based
- RECORDED CONDITIONS: Hepatitis C virus subtype 1a
Simple rule here: EC90 less than 70 pM is class 1, otherwise class 0.

# COMPOUND SMILES, ANSWER LABEL
rows = [
    ("COC(=O)N[C@H](C(=O)N1CCC[C@H]1c1ncc(-c2cc(F)c3c(c2)O[C@@H](c2cc4c(s2)CCC4)n2c-3cc3cc(-c4cnc([C@@H]5CCCN5C(=O)[C@@H](NC(=O)OC)C5CCOCC5)[nH]4)ccc32)[nH]1)C(C)C", "class 1"),
    ("CCc1ccc([C@@H]2Oc3cc(-c4cnc([C@@H]5CCCN5C(=O)[C@@H](NC(=O)OC)[C@@H]5CCOC(C)(C)C5)[nH]4)cc(F)c3-c3cc4cc(-c5cnc([C@@H]6CCCN6C(=O)[C@@H](NC(=O)OC)C(C)C)[nH]5)ccc4n32)s1", "class 0"),
    ("CCCc1ccc([C@@H]2Oc3cc(-c4cnc([C@@H]5CCCN5C(=O)[C@@H](NC(=O)OC)C(C)C)[nH]4)cc(F)c3-c3cc4cc(-c5cnc([C@@H]6CCCN6C(=O)[C@@H](NC(=O)OC)[C@@H]6CCOC(C)(C)C6)[nH]5)ccc4n32)s1", "class 0"),
    ("COC(=O)N[C@H](C(=O)N1CCC[C@H]1c1ncc(-c2cc(F)c3c(c2)O[C@@H](c2ccc(C4CC4)s2)n2c-3cc3cc(-c4cnc([C@@H]5CCCN5C(=O)[C@@H](NC(=O)OC)C5CC(C)(C)OC(C)(C)C5)[nH]4)ccc32)[nH]1)C(C)C", "class 1"),
    ("COC(=O)N[C@H](C(=O)N1CCC[C@H]1c1ncc(-c2ccc3c(c2)cc2n3[C@H](c3ccc4c(c3)OCCN4C)Oc3cc(-c4cnc([C@@H]5CCCN5C(=O)[C@@H](NC(=O)OC)C5CCOCC5)[nH]4)cc(F)c3-2)[nH]1)C(C)C", "class 0"),
]

* * *

Measured EC90 accompanies every entry in the list below.
- SUBJECT OF TEST: Nonstructural protein 5A (Hepatitis C virus)
- METHOD SUMMARY: Inhibition of NS5A in HCV genotype 3a infected in HuH7 replicon cells assessed as decrease in viral replication after 3 days by RT-PCR method
- Type: cell-based
- RECORDED CONDITIONS: Hepatitis C virus subtype 3a
OUTCOME MEASURE: EC90 (pM)

# COMPOUND SMILES, SUBJECT OF TEST, VAL
records = [
    ("COC(=O)N[C@H](C(=O)N1CCC[C@H]1c1ncc(-c2cc(F)c3c(c2)O[C@@H](c2ccc(C4CC4)s2)n2c-3cc3cc(-c4cnc([C@@H]5CCCN5C(=O)[C@@H](NC(=O)OC)[C@H]5CCOC(C)(C)C5)[nH]4)ccc32)[nH]1)C(C)C", "Nonstructural protein 5A (Hepatitis C virus)", 9),
    ("COC(=O)N[C@H](C(=O)N1CCC[C@H]1c1ncc(-c2ccc3c(c2)cc2n3[C@H](c3ccc4c(c3)OCCC4)Oc3cc(-c4cnc([C@@H]5CCCN5C(=O)[C@@H](NC(=O)OC)C5CCOCC5)[nH]4)cc(F)c3-2)[nH]1)C(C)C", "Nonstructural protein 5A (Hepatitis C virus)", 3),
]

* * *

- SUBJECT OF TEST: Nonstructural protein 5A (Hepatitis C virus) (UniProt Q5L478)
- Sequence (Q5L478 as listed by the source): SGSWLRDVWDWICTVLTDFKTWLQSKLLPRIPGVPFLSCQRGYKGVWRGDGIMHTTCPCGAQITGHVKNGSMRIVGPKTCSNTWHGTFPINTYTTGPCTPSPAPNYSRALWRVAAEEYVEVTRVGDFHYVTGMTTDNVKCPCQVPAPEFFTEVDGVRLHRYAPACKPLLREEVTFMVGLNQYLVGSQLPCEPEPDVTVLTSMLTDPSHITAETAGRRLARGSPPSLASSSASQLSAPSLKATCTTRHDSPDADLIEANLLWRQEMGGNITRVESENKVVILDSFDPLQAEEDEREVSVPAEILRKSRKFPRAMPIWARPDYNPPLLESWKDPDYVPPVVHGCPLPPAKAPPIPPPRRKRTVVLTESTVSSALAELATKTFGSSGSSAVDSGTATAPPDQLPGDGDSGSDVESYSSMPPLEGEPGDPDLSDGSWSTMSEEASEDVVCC
- METHOD SUMMARY: Inhibition of NS5A in HCV genotype 1a infected in HuH7 replicon cells assessed as decrease in viral replication after 3 days by RT-PCR method
- Type: cell-based
- RECORDED CONDITIONS: Hepatitis C virus subtype 1a
Measured EC90 accompanies every entry in the list below.

# COMPOUND SMILES, EC90 (pM)
rows = [
    ("COC(=O)N[C@H](C(=O)N1CCC[C@H]1c1ncc(-c2cc(F)c3c(c2)O[C@@H](c2ccc(C4CC4)s2)n2c-3cc3cc(-c4cnc([C@@H]5CCCN5C(=O)[C@@H](NC(=O)OC)[C@H]5CCOC(C)(C)C5)[nH]4)ccc32)[nH]1)C(C)C", 4),
    ("CCCc1ncc([C@@H]2Oc3cc(-c4cnc([C@@H]5CCCN5C(=O)[C@@H](NC(=O)OC)C(C)C)[nH]4)cc(F)c3-c3cc4cc(-c5cnc([C@@H]6CCCN6C(=O)[C@@H](NC(=O)OC)[C@@H]6CCOC(C)(C)C6)[nH]5)ccc4n32)s1", 4),
    ("COC(=O)N[C@H](C(=O)N1CCC[C@H]1c1ncc(-c2cc(F)c3c(c2)O[C@@H](c2ccc(C(F)F)s2)n2c-3cc3cc(-c4cnc([C@@H]5CCCN5C(=O)[C@@H](NC(=O)OC)C5CCOCC5)[nH]4)ccc32)[nH]1)C(C)C", 4),
]

* * *

- SUBJECT OF TEST: Nonstructural protein 5A (Hepatitis C virus) (UniProt Q5L478)
- METHOD SUMMARY: Inhibition of NS5A in HCV genotype 1b infected in HuH7 replicon cells assessed as decrease in viral replication after 3 days by RT-PCR method
- Assay type: cell-based
- RECORDED CONDITIONS: Hepatitis C virus subtype 1b

# MOLECULE, EC90, pM
data = [
    ("COC(=O)N[C@H](C(=O)N1CCC[C@H]1c1ncc(-c2cc(F)c3c(c2)O[C@@H](c2ccc(C4CC4)s2)n2c-3cc3cc(-c4cnc([C@@H]5CCCN5C(=O)[C@@H](NC(=O)OC)C5CCOCC5)[nH]4)ccc32)[nH]1)C(C)C", 5),
    ("COC(=O)N[C@H](C(=O)N1CCC[C@H]1c1ncc(-c2cc(F)c3c(c2)O[C@@H](c2ccc(C4CC4)s2)n2c-3cc3cc(-c4cnc([C@@H]5CCCN5C(=O)[C@@H](NC(=O)OC)C5CCOC6(CC6)C5)[nH]4)ccc32)[nH]1)C(C)C (stereo partly drawn)", 4),
    ("COC(=O)N[C@H](C(=O)N1CCC[C@H]1c1ncc(-c2cc(F)c3c(c2)O[C@@H](c2cc4c(s2)CCC4)n2c-3cc3cc(-c4cnc([C@@H]5CCCN5C(=O)[C@@H](NC(=O)OC)[C@@H]5CCOC(C)(C)C5)[nH]4)ccc32)[nH]1)C(C)C", 6),
]

* * *

Measured EC90 accompanies every entry in the list below.
- SUBJECT OF TEST: Nonstructural protein 5A (Hepatitis C virus) (UniProt Q5L478)
- METHOD SUMMARY: Inhibition of NS5A in HCV genotype 3a infected in HuH7 replicon cells assessed as decrease in viral replication after 3 days by RT-PCR method
- Type: cell-based
- RECORDED CONDITIONS: Hepatitis C virus subtype 3a
OUTCOME MEASURE: EC90 (pM)

# COMPOUND, VAL
rows = [
    ("COC(=O)N[C@H](C(=O)N1CCC[C@H]1c1ncc(-c2cc(F)c3c(c2)O[C@@H](c2ccc(C4CC4)s2)n2c-3cc3cc(-c4cnc([C@@H]5CCCN5C(=O)[C@@H](NC(=O)OC)C5CCOC6(CC6)C5)[nH]4)ccc32)[nH]1)C(C)C (some centres undefined)", 8),
    ("COC(=O)N[C@H](C(=O)N1CCC[C@H]1c1ncc(-c2ccc3c(c2)cc2n3[C@H](c3ccc4c(c3)OCCN4C)Oc3cc(-c4cnc([C@@H]5CCCN5C(=O)[C@@H](NC(=O)OC)C5CCOCC5)[nH]4)cc(F)c3-2)[nH]1)C(C)C", 17),
    ("COC(=O)N[C@H](C(=O)N1CCC[C@H]1c1ncc(-c2cc(F)c3c(c2)O[C@@H](c2cnc(C4CC4)s2)n2c-3cc3cc(-c4cnc([C@@H]5CCCN5C(=O)[C@@H](NC(=O)OC)[C@@H]5CCOC(C)(C)C5)[nH]4)ccc32)[nH]1)C(C)C", 15),
    ("COC(=O)N[C@H](C(=O)N1CCC[C@H]1c1ncc(-c2cc(F)c3c(c2)O[C@@H](c2ccc(C4CC4)s2)n2c-3cc3cc(-c4cnc([C@@H]5CCCN5C(=O)[C@@H](NC(=O)OC)C5CCO[C@@H](C)C5)[nH]4)ccc32)[nH]1)C(C)C (some centres undefined)", 8),
    ("COC(=O)N[C@H](C(=O)N1CCC[C@H]1c1ncc(-c2cc(F)c3c(c2)O[C@@H](c2ccc(C4CC4)s2)n2c-3cc3cc(-c4cnc([C@@H]5CCCN5C(=O)[C@@H](NC(=O)OC)C5CCOCC5)[nH]4)ccc32)[nH]1)C(C)C", 8),
    ("CCCc1ccc([C@@H]2Oc3cc(-c4cnc([C@@H]5CCCN5C(=O)[C@@H](NC(=O)OC)C(C)C)[nH]4)cc(F)c3-c3cc4cc(-c5cnc([C@@H]6CCCN6C(=O)[C@@H](NC(=O)OC)C6CCOCC6)[nH]5)ccc4n32)s1", 5),
    ("COC(=O)N[C@H](C(=O)N1CCC[C@H]1c1ncc(-c2ccc3c(c2)cc2n3[C@H](c3ccc(C4CC4)s3)Oc3cc(-c4cnc([C@@H]5CCCN5C(=O)[C@@H](NC(=O)OC)[C@@H]5CCOC(C)(C)C5)[nH]4)cc(F)c3-2)[nH]1)C(C)C", 13),
    ("COC(=O)N[C@H](C(=O)N1CCC[C@H]1c1ncc(-c2cc(F)c3c(c2)O[C@@H](c2cnc(C(C)C)s2)n2c-3cc3cc(-c4cnc([C@@H]5CCCN5C(=O)[C@@H](NC(=O)OC)[C@@H]5CCOC(C)(C)C5)[nH]4)ccc32)[nH]1)C(C)C", 38),
]
